system: oriental house flies; test: Potentiation of insecticidal activity by addition of piperonyl butoxide, topical application (Experimental Example 6); assay type: in vivo; conditions: piperonyl butoxide 5 times active ingredient; acetone solution on thoracic dorsal plate
metric: Potentiation magnification of insecticidal activity by the addition of piperonyl butoxide

{"columns": ["compound", "testedSystem", "result"],
 "data": [
  ["CC(C)C(C(=O)OCc1coc(Cc2ccccc2)c1)c1ccc(Br)cc1 (stereo not drawn) [compound 212]", "oriental house flies", 5.0]
]}

Input: Identify measured Potentiation magnification of insecticidal activity by the addition of piperonyl butoxide corresponding to CC(C)C(C(=O)OCc1cccc(Oc2ccccc2)c1)c1ccc(Cl)cc1 (stereo not drawn) [compound 206]
Output: 5.1

Input: Using the record for CCC(C(=O)OCc1coc(Cc2ccccc2)c1)c1ccc(F)cc1 (stereo not drawn) [compound 185] , state its measured Potentiation magnification of insecticidal activity by the addition of piperonyl butoxide.
Output: 5.0
